Biological target: Amyloid-beta precursor protein (Homo sapiens, UniProt P05067)
Sequence (P05067 whole entry): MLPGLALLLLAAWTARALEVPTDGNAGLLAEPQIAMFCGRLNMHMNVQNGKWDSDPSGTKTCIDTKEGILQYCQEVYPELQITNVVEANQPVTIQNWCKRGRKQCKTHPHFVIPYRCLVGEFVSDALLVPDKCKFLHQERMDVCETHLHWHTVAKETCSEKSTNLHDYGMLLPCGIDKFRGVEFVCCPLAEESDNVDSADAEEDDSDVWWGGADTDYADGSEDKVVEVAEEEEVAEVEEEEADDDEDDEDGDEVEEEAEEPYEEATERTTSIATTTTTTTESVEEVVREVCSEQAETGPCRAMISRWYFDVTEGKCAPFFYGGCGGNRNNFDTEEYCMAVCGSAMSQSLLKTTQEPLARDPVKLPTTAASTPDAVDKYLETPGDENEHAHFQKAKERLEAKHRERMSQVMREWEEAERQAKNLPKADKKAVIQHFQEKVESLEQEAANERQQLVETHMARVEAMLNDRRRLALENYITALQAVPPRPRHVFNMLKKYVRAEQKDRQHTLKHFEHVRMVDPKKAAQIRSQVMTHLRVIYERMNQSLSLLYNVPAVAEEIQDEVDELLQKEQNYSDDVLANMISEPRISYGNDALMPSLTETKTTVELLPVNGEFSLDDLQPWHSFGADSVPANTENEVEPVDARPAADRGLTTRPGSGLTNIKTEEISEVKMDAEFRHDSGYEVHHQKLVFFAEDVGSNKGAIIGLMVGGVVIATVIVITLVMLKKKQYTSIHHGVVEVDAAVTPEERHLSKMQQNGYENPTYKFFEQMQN
Assay: Inhibition of amyloid beta (1-42) aggregation (unknown origin) after 24 hrs by thioflavin T fluorescence method
pIC50: −log10 of the molar value.
property_measured: pIC50

- N#C/C(=C\c1ccc(-c2ccc(-c3ccc(N(c4ccccc4)c4ccccc4)cc3)s2)s1)C(N)=O: 5.82
- COc1ccc(-c2cc3c(s2)c2sc(-c4ccc(/C=C(\C#N)C(N)=O)s4)cc2n3C(C)(C)C)cc1: 6.26

----------
Target: Microtubule-associated protein tau (Homo sapiens, UniProt P10636)
Sequence (P10636 whole entry): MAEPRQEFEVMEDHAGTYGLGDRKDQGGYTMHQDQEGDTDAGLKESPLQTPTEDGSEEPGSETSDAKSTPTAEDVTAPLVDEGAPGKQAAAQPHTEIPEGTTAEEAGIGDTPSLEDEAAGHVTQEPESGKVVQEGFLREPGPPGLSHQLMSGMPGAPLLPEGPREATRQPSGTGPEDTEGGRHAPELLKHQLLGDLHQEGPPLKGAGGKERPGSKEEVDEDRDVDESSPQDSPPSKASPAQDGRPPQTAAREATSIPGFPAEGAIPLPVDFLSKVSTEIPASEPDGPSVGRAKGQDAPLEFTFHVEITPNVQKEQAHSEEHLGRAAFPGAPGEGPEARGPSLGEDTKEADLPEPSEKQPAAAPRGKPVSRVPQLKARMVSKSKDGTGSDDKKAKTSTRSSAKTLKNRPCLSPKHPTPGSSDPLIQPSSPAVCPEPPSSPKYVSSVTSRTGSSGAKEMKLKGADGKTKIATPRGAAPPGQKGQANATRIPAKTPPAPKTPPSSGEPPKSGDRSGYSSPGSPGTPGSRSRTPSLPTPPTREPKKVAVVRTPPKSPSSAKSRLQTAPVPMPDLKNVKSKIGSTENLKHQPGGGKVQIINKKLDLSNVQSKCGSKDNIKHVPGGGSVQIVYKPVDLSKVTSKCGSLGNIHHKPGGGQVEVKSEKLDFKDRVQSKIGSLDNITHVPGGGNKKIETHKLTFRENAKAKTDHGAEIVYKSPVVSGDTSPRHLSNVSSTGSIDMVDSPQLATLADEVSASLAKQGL
Assay: Inhibition of His-tagged human brain tau 3R MBD aggregation at 10 uM after 16 hrs by thioflavin T fluorescence method
Mark condition met for reported inhibition of 20% or greater; mark condition not met for anything smaller.

- COc1ccc(-c2ccc(-c3ccc(C=C(C#N)C#N)s3)s2)cc1: condition met
- O=C1NC(=O)C(=Cc2ccc(-c3ccc(-c4ccc(N(c5ccccc5)c5ccccc5)cc4)s3)s2)C(=O)N1: condition not met
- CC(C)(C)n1c2cc(-c3ccc(N(c4ccccc4)c4ccccc4)cc3)sc2c2sc(-c3ccc(/C=C(\C#N)C(N)=O)s3)cc21: condition met
- N#CC(C#N)=Cc1ccc(-c2ccc(-c3ccc(N(c4ccccc4)c4ccccc4)cc3)s2)s1: condition not met
- CC(C)(C)n1c2cc(-c3ccc(N(c4ccccc4)c4ccccc4)cc3)sc2c2sc(-c3ccc(C=C(C#N)C#N)s3)cc21: condition not met
- N#C/C(=C\c1ccc(-c2ccc(-c3ccc(N(c4ccccc4)c4ccccc4)cc3)c3nsnc23)s1)C(N)=O: condition met
- N#CC(C#N)=Cc1ccc(-c2ccc(-c3ccc(N(c4ccccc4)c4ccccc4)cc3)c3nsnc23)s1: condition not met
- O=Cc1ccc(-c2ccc(-c3ccc(N(c4ccccc4)c4ccccc4)cc3)s2)s1: condition not met
- O=Cc1ccc(-c2ccc(-c3ccc(N(c4ccccc4)c4ccccc4)cc3)c3nsnc23)s1: condition not met
- COc1ccc(-c2cc3c(s2)c2sc(-c4ccc(C=C(C#N)C#N)s4)cc2n3C(C)(C)C)cc1: condition met
- N#C/C(=C\c1ccc(-c2ccc(-c3ccc(N(c4ccccc4)c4ccccc4)cc3)s2)s1)C(N)=O: condition met
- CN1C(=O)C(=Cc2ccc(-c3ccc(-c4ccc(N(c5ccccc5)c5ccccc5)cc4)s3)s2)C(=O)N(C)C1=O: condition not met
- COc1ccc(-c2ccc(-c3ccc(C=O)s3)s2)cc1: condition not met
- CC(C)(C)n1c2cc(-c3ccc(N(c4ccccc4)c4ccccc4)cc3)sc2c2sc(-c3ccc(C=O)s3)cc21: condition not met

----------
Target: Amyloid-beta precursor protein (Homo sapiens)
Assay: Inhibition of amyloid beta (1-42) aggregation (unknown origin) after 24 hrs by thioflavin T fluorescence method
pIC50: −log10 of the molar value.
property_measured: pIC50

• O=c1c(O)c(-c2ccc(O)c(O)c2)oc2c(O)c(O)cc(O)c12 [GOSSYPETIN] = > 5.52
• COc1ccc(-c2cc3c(s2)c2sc(-c4ccc(C=O)s4)cc2n3C(C)(C)C)cc1 = 6.42
• CN(C)c1ccc2nc3ccc(N)cc3[s+]c2c1 = > 5.52
• O=Cc1ccc(-c2ccc(-c3ccc4[nH]ccc4c3)s2)s1 = < 5.00
• N#C/C(=C\c1ccc(-c2ccc(-c3ccc(N(c4ccccc4)c4ccccc4)cc3)c3nsnc23)s1)C(N)=O = < 5.00
• CN1C(=O)C(=Cc2ccc(-c3ccc(-c4ccc(N(c5ccccc5)c5ccccc5)cc4)s3)s2)C(=O)N(C)C1=O = < 5.00
• O=C1NC(=O)C(=Cc2ccc(-c3ccc(-c4ccc(N(c5ccccc5)c5ccccc5)cc4)s3)s2)C(=O)N1 = < 5.00
• CNc1ccc2nc3ccc(N(C)C)cc3[s+]c2c1 = > 5.52
• CC(C)(C)n1c2cc(-c3ccc(N(c4ccccc4)c4ccccc4)cc3)sc2c2sc(-c3ccc(C=O)s3)cc21 = < 5.00
• COc1ccc(-c2cc3c(s2)c2sc(-c4ccc(C=C(C#N)C#N)s4)cc2n3C(C)(C)C)cc1 = < 5.00
• CN(C)c1ccc2nc3ccc(=[N+](C)C)cc-3sc2c1 [METHYLENE BLUE CATION] = 6.26
• N#CC(C#N)=Cc1ccc(-c2ccc(-c3ccc(N(c4ccccc4)c4ccccc4)cc3)c3nsnc23)s1 = < 5.00
• O=Cc1ccc(-c2ccc(-c3ccc(N(c4ccccc4)c4ccccc4)cc3)c3nsnc23)s1 = < 5.00
• O=Cc1ccc(-c2ccc(-c3ccc(N(c4ccccc4)c4ccccc4)cc3)s2)s1 = 5.15
• CC(C)(C)n1c2cc(-c3ccc(N(c4ccccc4)c4ccccc4)cc3)sc2c2sc(-c3ccc(C=C(C#N)C#N)s3)cc21 = < 5.00
• CC(C)(C)n1c2cc(-c3ccc(N(c4ccccc4)c4ccccc4)cc3)sc2c2sc(-c3ccc(/C=C(\C#N)C(N)=O)s3)cc21 = < 5.00
• COc1ccc(-c2ccc(-c3ccc(C=O)s3)s2)cc1 = < 5.00

----------
Target: Amyloid-beta precursor protein (Homo sapiens)
Test: Inhibition of amyloid beta (1-42) aggregation (unknown origin) at 10 uM after 24 hrs by thioflavin T fluorescence method
property_measured: inhibition (%)

- N#C/C(=C\c1ccc(-c2ccc(-c3ccc(N(c4ccccc4)c4ccccc4)cc3)c3nsnc23)s1)C(N)=O: 46
- CC(C)(C)n1c2cc(-c3ccc(N(c4ccccc4)c4ccccc4)cc3)sc2c2sc(-c3ccc(C=C(C#N)C#N)s3)cc21: 16
- O=C1NC(=O)C(=Cc2ccc(-c3ccc(-c4ccc(N(c5ccccc5)c5ccccc5)cc4)s3)s2)C(=O)N1: 0
- COc1ccc(-c2ccc(-c3ccc(C=O)s3)s2)cc1: 0

----------
Target: Amyloid-beta precursor protein (Homo sapiens)
Test: Inhibition of amyloid beta (1-42) aggregation (unknown origin) at 10 uM after 24 hrs by thioflavin T fluorescence method
property_measured: inhibition (%)

- CC(C)(C)n1c2cc(-c3ccc(N(c4ccccc4)c4ccccc4)cc3)sc2c2sc(-c3ccc(C=O)s3)cc21: 36
- O=Cc1ccc(-c2ccc(-c3ccc4[nH]ccc4c3)s2)s1: 46
- CN1C(=O)C(=Cc2ccc(-c3ccc(-c4ccc(N(c5ccccc5)c5ccccc5)cc4)s3)s2)C(=O)N(C)C1=O: 18
- COc1ccc(-c2cc3c(s2)c2sc(-c4ccc(C=C(C#N)C#N)s4)cc2n3C(C)(C)C)cc1: 18
- CC(C)(C)n1c2cc(-c3ccc(N(c4ccccc4)c4ccccc4)cc3)sc2c2sc(-c3ccc(/C=C(\C#N)C(N)=O)s3)cc21: 36
- N#CC(C#N)=Cc1ccc(-c2ccc(-c3ccc(N(c4ccccc4)c4ccccc4)cc3)s2)s1: 43
- N#CC(C#N)=Cc1ccc(-c2ccc(-c3ccc(N(c4ccccc4)c4ccccc4)cc3)c3nsnc23)s1: 30
- O=Cc1ccc(-c2ccc(-c3ccc(N(c4ccccc4)c4ccccc4)cc3)c3nsnc23)s1: 44

----------
Biological target: Amyloid-beta precursor protein (Homo sapiens)
Test: Inhibition of amyloid beta (1-42) aggregation (unknown origin) after 24 hrs by thioflavin T fluorescence method
pIC50: −log10 of the molar value.
# pIC50 listing for each entry below
property_measured: pIC50

* N#C/C(=C\c1ccc(-c2ccc(-c3ccc(N(c4ccccc4)c4ccccc4)cc3)s2)s1)C(=O)O | > 6.39
* COc1ccc(-c2ccc(-c3ccc(C=C(C#N)C#N)s3)s2)cc1 | > 6.00
* N#CC(C#N)=Cc1ccc(-c2ccc(-c3ccc(N(c4ccccc4)c4ccccc4)cc3)s2)s1 | < 5.00
